The reported numbers originate from patent US20050245563A1.

target: human Chk1 (GST-Chk1) (Homo sapiens, UniProt O14757); construct: made in house; host or cells: insect cells (baculovirus, Bac-to-Bac); experiment: Chk1 FlashPlate kinase assay; format: biochemical; details: 8.7 nM GST-Chk1, 1 uM ATP, 33P incorporation into peptide substrate
Sequence (O14757 whole entry): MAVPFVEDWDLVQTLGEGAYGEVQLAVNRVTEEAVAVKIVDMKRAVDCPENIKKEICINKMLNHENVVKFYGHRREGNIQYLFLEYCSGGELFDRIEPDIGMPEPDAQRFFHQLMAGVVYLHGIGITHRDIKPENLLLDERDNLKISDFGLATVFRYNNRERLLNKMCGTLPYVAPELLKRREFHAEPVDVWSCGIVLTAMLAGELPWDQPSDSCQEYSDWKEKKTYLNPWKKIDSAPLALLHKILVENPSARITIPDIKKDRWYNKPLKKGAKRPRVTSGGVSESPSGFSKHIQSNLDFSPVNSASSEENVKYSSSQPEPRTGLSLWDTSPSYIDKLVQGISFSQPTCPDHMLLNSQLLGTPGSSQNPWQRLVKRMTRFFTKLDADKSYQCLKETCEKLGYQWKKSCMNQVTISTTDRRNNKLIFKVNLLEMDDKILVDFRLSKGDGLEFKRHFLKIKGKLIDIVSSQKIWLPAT
pIC50: −log10 of the molar value.
Record form. Attribute: pIC50. Fill in for each entry.

Example entries begin here.
compound="Cc1n[nH]c2c1c(=O)n(CC(N)Cc1ccccc1)c1ccccc21 (stereo not drawn) [Example 23]" system_tested="human Chk1 (GST-Chk1) (Homo sapiens, UniProt O14757)" observed_measurement="< 4.70"
compound="Cc1n[nH]c2c1c(=O)n(CCCNCc1ccccc1)c1ccccc21 [Example 5]" system_tested="human Chk1 (GST-Chk1) (Homo sapiens, UniProt O14757)" observed_measurement="> 6.00"
compound="Cc1n[nH]c2c1c(=O)n(CCCNC(=O)OC(C)(C)C)c1ccc(Br)cc21 [Example 56]" system_tested="human Chk1 (GST-Chk1) (Homo sapiens, UniProt O14757)" observed_measurement="> 6.00"
compound="Cc1n[nH]c2c1c(=O)n(CCCCN)c1ccc(Br)cc21 [Example 34]" system_tested="human Chk1 (GST-Chk1) (Homo sapiens, UniProt O14757)" observed_measurement="> 6.00"
compound="Cc1n[nH]c2c1c(=O)n(CCCOCc1ccccc1)c1ccccc21 [Example 12]" system_tested="human Chk1 (GST-Chk1) (Homo sapiens, UniProt O14757)" observed_measurement="> 6.00"

Take each entry in turn and give its pIC50.
1. Cc1n[nH]c2c1c(=O)n(CCNC(=O)C(N)Cc1ccccc1)c1ccccc21 (stereo not drawn) [Example 105]
2. Cc1[nH]nc2c1c(=O)n(CCCN)c1ccc(N3CCN(C)CC3)cc21 [Example 121]
3. Cc1[nH]nc2c1c(=O)n(CCCNC(=O)c1ccc(Cl)cc1)c1cc(Cl)ccc21 [Example 75]
4. Cc1[nH]nc2c1c(=O)n(CCCNC(=O)CCc1ccccc1)c1ccccc21 [Example 62]
5. Cc1n[nH]c2c1c(=O)n(CCCNC(=O)OC(C)(C)C)c1ccc(Cl)cc21 [Example 31]

["> 6.00", "> 6.00", "> 6.00", "> 6.00", "> 6.00"]

For each of the compounds below, state pIC50.
1. Cc1n[nH]c2c1c(=O)n(C[C@@H](C)CN)c1ccc(Br)cc21 [Example 47]
2. Cc1[nH]nc2c1c(=O)n(CCCNC(=O)c1ccc(C#N)cc1)c1ccccc21 [Example 68]
3. Cc1[nH]nc2c1c(=O)n(CCCNC(=O)c1ccc([N+](=O)[O-])cc1)c1ccccc21 [Example 61]
4. Cc1n[nH]c2c1c(=O)n(CCNC(=O)OC(C)(C)C)c1ccc(Br)cc21 [Example 52]
5. Cc1[nH]nc2c1c(=O)n(CCNC(=O)CCc1ccccc1)c1ccccc21 [Example 92]
6. Cc1n[nH]c2c1c(=O)n(CCCNC(=O)c1ccccc1)c1ccccc21 [Example 73]
7. Cc1[nH]nc2c1c(=O)n(CCCNC(=O)CCC(NC(=O)OC(C)(C)C)C(=O)OC(C)(C)C)c1ccccc21 (stereo not drawn) [Example 99]
8. CC(=O)OCCn1c(=O)c2c(C)n[nH]c2c2ccccc21 [Example 3]

> 6.00
> 6.00
> 6.00
> 6.00
4.70 to 6.00
> 6.00
4.70 to 6.00
4.70 to 6.00
